experiment: Part 2 PK study: 200 mg QD versus 100 mg BID for 10 days under fed conditions; format: in vivo, human; settings: human, plasma, oral, 100 mg, 100 mg BID, fed, Day 1; median; read-out: Tmax

Molecule: c1cnc(NCc2ccc(CNc3ncccn3)cc2)nc1 [Q-122]
Tmax: 2 h

---

test: Part 1 PK study: single oral 200 mg dose, fed (high-fat meal) versus fasted; format: in vivo, human; details: female, human, plasma, po, 200 mg, single oral 200 mg, fed (high-fat meal); median; read-out: Cmax
Quantity Kind: Cmax (ng/mL)

Compound: c1cnc(NCc2ccc(CNc3ncccn3)cc2)nc1 [Q-122]
Measured: 929
